Where do the numbers come from? From paper PMC5978685.

Could you please report measured CC50 at 24 h for the items listed next?
# assay: MTS cytotoxicity assay in HEK Blue cells
# Type: cell-based
# protocol conditions: human, HEK Blue CD40 sensor cells; HEK Blue cells, 24 h; read-out: LC50 (cytotoxicity, MTS)
Response body: numeric value in µM, unit text excluded.

So, O=C(Nc1ccc(-c2ccc(C(=O)Nc3cccc4cccc(S(=O)(=O)O)c34)cc2)nc1)c1ccc([N+](=O)[O-])cc1 [Compound 18] ? Its CC50 at 24 h was 131

The compound identified as O=C(Nc1ccc(-c2ccc(C(=O)Nc3cccc4cccc(S(=O)(=O)O)c34)cc2)cc1)c1ccc(-c2ccc([N+](=O)[O-])cc2)cc1 [Compound 14] registered its CC50 at 24 h at 55.6

----------
# assayed target: UniProt:P23510
# Sequence (P23510 51-183 limits assumed): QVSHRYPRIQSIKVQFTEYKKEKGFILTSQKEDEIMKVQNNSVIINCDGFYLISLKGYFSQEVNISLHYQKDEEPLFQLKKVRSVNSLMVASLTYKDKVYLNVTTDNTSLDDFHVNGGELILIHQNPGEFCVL
Doc: threshold 7 µM (exclusive). Items with IC50 beneath it return criterion met; others return criterion not met.

Input line: A record lists COC(=O)c1ccc(-c2ccc(C(=O)Nc3ccc(-c4ccc(C(=O)Nc5cccc6cccc(S(=O)(=O)O)c56)cc4)cc3)cc2)cc1 . Is its IC50 below 7 µM?
Output line: criterion met

Input line: # TODO verify IC50 < 7 µM strictly for this molecule: O=C(Nc1ccc(-c2ccc(C(=O)Nc3cccc4cccc(S(=O)(=O)O)c34)cc2)cc1)c1ccc(C(F)(F)F)cc1
Output line: criterion not met

Input line: Consider the molecule COC(=O)c1cccc2c(NC(=O)c3ccc(-c4ccc(NC(=O)c5ccc([N+](=O)[O-])cc5)cc4)cc3)cccc12 . Is its IC50 strictly less than 7 µM?
Output line: criterion not met

Input line: Answer whether the molecule O=C(Nc1ccc2cc(C(=O)Nc3cccc4cccc(S(=O)(=O)O)c34)ccc2c1)c1ccc([N+](=O)[O-])cc1 has IC50 strictly less than 7 µM
Output line: criterion not met

Input line: # strict comparison: is reported IC50 < 7 µM? input = O=C(Nc1ccc(-c2ccc(C(=O)Nc3cccc4cccc(S(=O)(=O)O)c34)cc2)nc1)c1ccc([N+](=O)[O-])cc1
Output line: criterion met

Input line: Problem: For the molecule O=C(Nc1ccc(-c2ccc(C(=O)Nc3cccc4cccc(S(=O)(=O)O)c34)cc2)cc1)c1ccc([N+](=O)[O-])cc1 , is IC50 under 7 µM?
Output line: criterion not met

----------
# assayed target: TNF-R1–TNFα (Homo sapiens, UniProt P01375)
# Construct: purchased Enzo Life Sciences
# Sequence (P01375 85-233 limits assumed): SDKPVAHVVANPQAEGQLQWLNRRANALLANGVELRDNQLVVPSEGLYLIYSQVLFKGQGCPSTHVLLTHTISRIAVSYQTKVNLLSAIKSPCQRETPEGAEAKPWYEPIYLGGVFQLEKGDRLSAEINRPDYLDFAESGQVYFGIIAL
# assay: cell-free ELISA-type binding inhibition assay, TNF-R1–TNFα
# protocol conditions: cell-free binding inhibition; read-out: TNF-R1–TNF IC50
# Method: In parallel with the CD40–CD154 assay, the ability of these compounds to inhibit other TNFSFR–TNFSF PPIs, including OX40–OX40L, BAFFR–BAFF, and TNF-R1–TNF-α, was also assessed (Figure 3B–D). Binding inhibition assays were performed in a 96-well cell-free format as described before. […] The reaction was stopped using 30 μL of 1M H2SO4, and the absorbance value was read at 450 nm. […]
observation type: pIC50
Scale: negative log10 of molar concentration, which is what pIC50 denotes.

Note to self: pIC50 of COC(=O)c1ccc(-c2ccc(C(=O)Nc3ccc(-c4ccc(C(=O)Nc5cccc6cccc(S(=O)(=O)O)c56)cc4)cc3)cc2)cc1 with TNF-R1–TNFα (Homo sapiens, UniProt P01375) was 4.58
